test system: isolated rabbit portal vein; assay: Effects on the isolated rabbit portal vein (contraction, in vitro); assay type: cell-based; conditions: Oryctolagus cuniculus; female rabbit portal vein longitudinal strips; cumulative addition; Krebs solution, 37° C.; read-out: Portal vein, in vitro: EC50 value (effective concentration inducing a half maximum contraction)
Recorded pEC50 values for a group of compounds are listed next.
For clarity, pEC50 is expressed as the negative log10 of concentration in mol/L.

- compound: "CC(C)Oc1c(Cl)cccc1C(O)CN1CCCC1 (centres unmarked) [Compound 7]"
  pEC50: 4.39

Prompt: Need pEC50 of NC[C@H](O)c1ccc(O)c(O)c1 [Noradrenaline, noradrenaline, reference compound] , thanks.
Completion: 5.28
